Target: MRGPRX4 (Homo sapiens)
Assay: MRGPR X4 antagonist activity, IP-One Gq HTRF assay in stably transfected HEK cells (versus agonist bilirubin, deoxycholic acid, conjugated bilirubin, urobilin, obeticholic acid or BAR502)
Type: cell-based
Set-up: expressed in transfected cells; host or cells: HEK cells, stably transfected
Settings: versus 10 μM Bilirubin agonist; HEK cells expressing human MRGPR X4; read-out: MRGPR4 Antagonist Activity
pIC50: −log10 of the molar value.
MEASURED PROPERTY: pIC50

COMPOUND	pIC50
Cc1cc(COc2ccc(C(F)(F)F)cc2Cl)nc(C(=O)O)c1	> 7.00
FC(F)(F)c1cc(Cl)ccc1OCc1cccc(-c2nnn[nH]2)c1	6.30 to 7.00

get_value(item= O=C(NC1CCCC1)c1cccc(COc2ccc(C(F)(F)F)cc2Cl)c1 , readout=pIC50) returns 6.30 to 7.00

Per the record, O=C(O)c1cc(Cl)cc(COc2ccc(Cl)cc2Cl)c1 has pIC50 of > 7.00

The compound O=C(O)c1cccc(COc2ccc3occc3c2)c1 showed pIC50 equal to 6.30 to 7.00

====

Target: MRGPRX4 (Homo sapiens, UniProt Q96LA9)
Sequence (Q96LA9 whole entry): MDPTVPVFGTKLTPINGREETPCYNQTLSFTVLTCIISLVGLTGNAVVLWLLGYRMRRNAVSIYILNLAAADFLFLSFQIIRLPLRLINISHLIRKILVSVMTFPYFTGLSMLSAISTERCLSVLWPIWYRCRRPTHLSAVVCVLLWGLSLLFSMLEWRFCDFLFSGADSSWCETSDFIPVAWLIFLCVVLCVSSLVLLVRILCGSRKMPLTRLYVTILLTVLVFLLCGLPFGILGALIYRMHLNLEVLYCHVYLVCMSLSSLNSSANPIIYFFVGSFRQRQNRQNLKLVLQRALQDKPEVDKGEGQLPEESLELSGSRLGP
Assay: MRGPR X4 antagonist activity, IP-One Gq HTRF assay in stably transfected HEK cells (versus agonist bilirubin, deoxycholic acid, conjugated bilirubin, urobilin, obeticholic acid or BAR502)
Type: cell-based
Set-up: expressed in transfected cells; host or cells: HEK cells, stably transfected
Details: versus 10 μM Bilirubin agonist; HEK cells expressing human MRGPR X4; read-out: MRGPR4 Antagonist Activity
Experimental: HEK cells stably transfected to express human MRGPR X4 were maintained in an incubator at 37° C. with 5% CO2 and grown in DMEM media with 10% fetal bovine serum (FBS) and 1% each of sodium pyruvate, Glutamax, penicillin/streptomycin, and Geneticin. […] Cells were plated in a 384-well assay plate at 20,000 cells per well in 12 μL of Opti-MEM and kept in an incubator overnight. […] The plate was read on a Molecular Devices SpectraMax iD5 plate reader. […]
MEASURED PROPERTY: IC50

MOLECULE	IC50
Cc1cc(COc2ccc(C(F)(F)F)cc2Cl)cc(C(=O)O)c1 [Compound 4-10]	< 0.1 µM
COC(=O)c1cccc(COc2ccc(OC(F)(F)F)cc2)c1 [Compound 1-6]	1 to 2.5 µM
O=C(O)c1cccc(COc2ccc(Br)cc2)c1 [Compound 1-110]	0.1 to 0.5 µM
O=C(O)c1cccc(COc2ccc(F)cc2C(F)(F)F)c1 [Compound 1-91]	0.5 to 1 µM
Cc1cc(C(F)(F)F)ccc1OCc1cccc(-c2nnn[nH]2)c1 [Compound 17-11]	< 0.1 µM
O=C(O)c1cccc(COc2ccc(-c3ccccc3)cc2)c1 [Compound 1-81]	> 2.5 µM

# IC50 (molecule: O=C(O)c1cccc(COc2ccc(OC(F)(F)F)c(Cl)c2)c1 [Compound 1-132] ) is < 0.1 µM

The measured IC50 associated with Cc1cc(Cl)ccc1OCc1cccc(C(=O)O)n1 [Compound 1-57] reads 0.1 to 0.5 µM

The molecule identified as Cc1ccc(COc2ccc(Cl)cc2Cl)cc1C(=O)O [Compound 8-1] registered its IC50 at > 2.5 µM

====

# pIC50 values compiled below
Biological target: MRGPRX4 (Homo sapiens, UniProt Q96LA9)
Assay: MRGPR X4 antagonist activity, IP-One Gq HTRF assay in stably transfected HEK cells (versus agonist bilirubin, deoxycholic acid, conjugated bilirubin, urobilin, obeticholic acid or BAR502)
Format: cell-based
Set-up: expressed in transfected cells; host or cells: HEK cells, stably transfected
Conditions: versus 10 μM Bilirubin agonist; HEK cells expressing human MRGPR X4; read-out: MRGPR4 Antagonist Activity
pIC50: −log10 of the molar value.

Previously resolved entries follow.
COMPOUND	pIC50
O=C(O)c1cc(F)cc(COc2ccc(Cl)cc2Cl)c1 [Compound 4-4]	> 7.00
N#Cc1c(Cl)cccc1OCc1cccc(C(=O)O)c1 [Compound 1-76]	6.30 to 7.00

// pIC50 value for O=C(NC1CCC1)c1cccc(COc2ccc(C(F)(F)F)cc2Cl)c1 [Compound 52-24] : 6.30 to 7.00

pIC50 reading for O=C(O)c1cccc(COc2c(Cl)cccc2Cl)c1 [Compound 1-25] : < 5.60

The reported value for O=C(O)c1cccc(COc2ccc(-n3cccc3)cc2Cl)c1F [Compound 4-25] in terms of pIC50 is 6.30 to 7.00

// pIC50 lookup, compound = O=C(O)c1cccc(COc2ccc(Cl)cc2Cl)c1 [Compound 1-18] , result: > 7.00

The compound listed as O=C(O)c1cc(COc2ccc(C(F)(F)F)cc2Cl)cc(C2CC2)c1 [Compound 11-1] shows pIC50 equal to > 7.00

Query O=C(O)c1cc(F)cc(COc2ccc(C(F)(F)F)cc2Cl)c1 [Compound 1-65] yields pIC50 of > 7.00

Looking up COc1ccc(OCc2cccc(C(=O)O)c2)cc1 [Compound 1-38] , I found its pIC50 recorded as 6.30 to 7.00

The value of pIC50 measured for the compound O=C(O)c1cccc(COc2ccc(OC(F)F)cc2)c1 [Compound 1-135] turned out to be 6.30 to 7.00

====

Molecular target: MRGPRX4 (Homo sapiens, UniProt Q96LA9)
Test: MRGPR X4 antagonist activity, IP-One Gq HTRF assay in stably transfected HEK cells (versus agonist bilirubin, deoxycholic acid, conjugated bilirubin, urobilin, obeticholic acid or BAR502)
Assay type: cell-based
Design: expressed in transfected cells; host or cells: HEK cells, stably transfected
Details: versus 10 μM Bilirubin agonist; HEK cells expressing human MRGPR X4; read-out: MRGPR4 Antagonist Activity
IC50 values by entry

Previously resolved entries follow.
SMILES RECORD	MEASUREMENT TARGET	IC50
Cc1cc(COc2ccc(Cl)c(Cl)c2Cl)nc(C(=O)O)c1	MRGPRX4 (Homo sapiens, UniProt Q96LA9)	< 100 nM
COC(=O)c1cccc(COc2ccc3scnc3c2)c1	MRGPRX4 (Homo sapiens, UniProt Q96LA9)	> 2500 nM
O=C(O)c1cccc(CSc2ccc(Cl)cc2Cl)c1	MRGPRX4 (Homo sapiens, UniProt Q96LA9)	100 to 500 nM
O=C(O)c1cccc(COc2ccc(C(F)(F)F)c(Cl)c2)n1	MRGPRX4 (Homo sapiens, UniProt Q96LA9)	< 100 nM
Cc1ccc(C(C)(C)C)c(OCc2cccc(C(=O)O)c2)c1	MRGPRX4 (Homo sapiens, UniProt Q96LA9)	1000 to 2500 nM

# IC50 measured on MRGPRX4 (Homo sapiens, UniProt Q96LA9) for item NC(=O)CC[C@H](NC(=O)c1cccc(COc2ccc(C(F)(F)F)cc2Cl)c1)C(=O)O = 100 to 500 nM

Record O=C(O)c1cc(COc2ccc(C(F)(F)F)cc2Cl)ccn1 ; system MRGPRX4 (Homo sapiens, UniProt Q96LA9); IC50 = 100 to 500 nM

====

# IC50 per entry
Target: MRGPRX4 (Homo sapiens, UniProt Q96LA9)
Experiment: MRGPR X4 antagonist activity, IP-One Gq HTRF assay in stably transfected HEK cells (versus agonist bilirubin, deoxycholic acid, conjugated bilirubin, urobilin, obeticholic acid or BAR502)
Format: cell-based
Parameters: expressed in transfected cells; host or cells: HEK cells, stably transfected
Conditions: versus 10 μM Bilirubin agonist; HEK cells expressing human MRGPR X4; read-out: MRGPR4 Antagonist Activity

Solved entries:
SMILES RECORD	IC50
O=C(c1ccc(COc2ccc(C(F)(F)F)cc2Cl)cc1)N1CCC2(COC2)C1	1 to 2.5 µM
Cc1cc(OCc2cccc(C(=O)O)c2)ccc1Cl	0.5 to 1 µM
Cc1cc(COc2ccc3ccccc3c2)cc(C(=O)O)c1	< 0.1 µM

According to the records, this molecule COC(=O)c1cccc(COc2ccc(Cl)cc2C)n1 displays IC50 of 0.1 to 0.5 µM

Entry COc1ccc(COc2ccc(Cl)cc2Cl)cc1C(=O)O , IC50 reported as 1 to 2.5 µM

Looking up Cc1noc(-c2cccc(COc3ccc(C(F)(F)F)cc3Cl)c2)n1 , I see its IC50 listed as > 2.5 µM

Field IC50 (entry O=C(O)c1cccc(COCc2ccc(Cl)cc2Cl)c1 ) reads 1 to 2.5 µM

molecule CCc1cc(COc2ccc3ccccc3c2)nc(C(=O)O)c1 , IC50 observed: < 0.1 µM

Item: CC(C)(NC(=O)c1cccc(COc2ccc(C(F)(F)F)cc2Cl)c1)C(=O)O | IC50: 0.1 to 0.5 µM

====

Molecular target: MRGPRX4 (Homo sapiens)
Test: MRGPR X4 antagonist activity, IP-One Gq HTRF assay in stably transfected HEK cells (versus agonist bilirubin, deoxycholic acid, conjugated bilirubin, urobilin, obeticholic acid or BAR502)
Assay type: cell-based
Set-up: expressed in transfected cells; host or cells: HEK cells, stably transfected
Conditions: versus 10 μM Bilirubin agonist; HEK cells expressing human MRGPR X4; read-out: MRGPR4 Antagonist Activity
Property: IC50; scope: individual compounds

As a guide, the following entries are already answered.
SMILES RECORD	IC50
CCNC(=O)c1cccc(COc2ccc(C(F)(F)F)cc2Cl)c1	100 to 500 nM
COC(=O)c1cncc(COc2ccc(Cl)cc2Cl)n1	1000 to 2500 nM
O=C(O)c1cccc(COc2ccc(N3CCCC3)cc2Cl)c1F	500 to 1000 nM
Cc1cc(COc2ccc(OC(F)(F)F)cc2Cl)cc(C(=O)O)c1	< 100 nM

// next entry
The compound listed as Cc1cc(Cl)ccc1OCc1cccc(-c2nnn[nH]2)c1 has a reported IC50 of < 100 nM
